molecular target: rh-α5β1 (Homo sapiens, UniProt P05556+P08648); experiment: Competition binding studies by Biolayer Interferometry (epitope groups); settings: two epitope groups among 6 antibodies
Sequence (P08648 42-894 limits assumed): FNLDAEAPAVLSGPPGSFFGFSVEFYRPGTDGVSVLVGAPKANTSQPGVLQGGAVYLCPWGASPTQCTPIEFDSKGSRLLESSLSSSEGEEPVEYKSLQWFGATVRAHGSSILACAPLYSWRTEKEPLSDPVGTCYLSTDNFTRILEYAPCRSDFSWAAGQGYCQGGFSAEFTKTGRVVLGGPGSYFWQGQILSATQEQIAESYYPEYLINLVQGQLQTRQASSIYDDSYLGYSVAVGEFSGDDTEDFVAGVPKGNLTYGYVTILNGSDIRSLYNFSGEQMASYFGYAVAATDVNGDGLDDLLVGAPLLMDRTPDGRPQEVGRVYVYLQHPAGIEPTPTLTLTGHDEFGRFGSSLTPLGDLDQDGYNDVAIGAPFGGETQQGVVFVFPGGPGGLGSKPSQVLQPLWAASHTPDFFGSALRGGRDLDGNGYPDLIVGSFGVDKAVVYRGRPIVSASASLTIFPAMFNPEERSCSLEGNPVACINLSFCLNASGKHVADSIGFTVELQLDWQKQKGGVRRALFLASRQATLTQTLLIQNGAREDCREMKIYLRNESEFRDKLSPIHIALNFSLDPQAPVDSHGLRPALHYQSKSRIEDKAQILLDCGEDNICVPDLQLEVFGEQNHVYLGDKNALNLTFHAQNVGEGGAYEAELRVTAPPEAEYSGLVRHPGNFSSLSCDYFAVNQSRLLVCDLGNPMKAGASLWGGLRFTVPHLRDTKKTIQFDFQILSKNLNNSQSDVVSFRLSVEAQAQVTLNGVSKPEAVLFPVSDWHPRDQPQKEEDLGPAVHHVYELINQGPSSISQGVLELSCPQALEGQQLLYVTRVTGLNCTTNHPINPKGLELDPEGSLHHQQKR
Sequence (P08648 895-995 limits assumed): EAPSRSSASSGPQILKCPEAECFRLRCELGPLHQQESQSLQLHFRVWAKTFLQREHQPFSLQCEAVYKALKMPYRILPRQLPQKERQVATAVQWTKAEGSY
Sequence (P05556 21-728 limits assumed): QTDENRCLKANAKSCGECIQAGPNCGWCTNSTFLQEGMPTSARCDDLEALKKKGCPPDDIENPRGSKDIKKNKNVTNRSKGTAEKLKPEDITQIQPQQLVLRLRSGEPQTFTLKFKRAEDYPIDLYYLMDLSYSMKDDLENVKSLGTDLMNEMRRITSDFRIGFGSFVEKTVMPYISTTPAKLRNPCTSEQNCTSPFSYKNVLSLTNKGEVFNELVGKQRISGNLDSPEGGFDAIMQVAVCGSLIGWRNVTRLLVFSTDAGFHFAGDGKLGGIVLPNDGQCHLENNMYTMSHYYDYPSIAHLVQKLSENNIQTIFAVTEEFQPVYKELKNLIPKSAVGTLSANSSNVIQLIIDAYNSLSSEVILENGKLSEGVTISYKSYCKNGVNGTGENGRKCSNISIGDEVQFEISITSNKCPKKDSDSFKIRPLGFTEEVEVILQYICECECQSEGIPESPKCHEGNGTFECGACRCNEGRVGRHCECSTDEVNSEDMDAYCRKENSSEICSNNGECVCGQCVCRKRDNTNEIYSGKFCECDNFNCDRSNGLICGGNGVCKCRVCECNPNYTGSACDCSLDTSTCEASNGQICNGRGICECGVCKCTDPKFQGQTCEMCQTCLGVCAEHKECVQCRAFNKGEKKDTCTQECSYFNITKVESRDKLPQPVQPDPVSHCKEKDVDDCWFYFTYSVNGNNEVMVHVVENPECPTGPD
reported_endpoint: epitope group

# molecule, endpoint_value
measured = [
    ("A2-7A05: anti-α5β1 antibody, VH SEQ ID NO:77, VL SEQ ID NO:78; tested as mouse hybridoma antibody and as human IgG4 chimera (antibody, V domains shown, A2-7A05 VH Sequence; A2-7A05 VL Sequence, tested as mouse hybridoma antibody and as human IgG4 chimera) VH: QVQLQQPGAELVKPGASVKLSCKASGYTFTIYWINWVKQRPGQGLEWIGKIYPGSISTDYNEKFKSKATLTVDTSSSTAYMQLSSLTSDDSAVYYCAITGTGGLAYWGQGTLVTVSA VL: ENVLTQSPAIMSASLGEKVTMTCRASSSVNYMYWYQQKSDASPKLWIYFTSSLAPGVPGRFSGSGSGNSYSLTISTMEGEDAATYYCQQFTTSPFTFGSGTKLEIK", "one group"),
    ("A2-7F01: anti-α5β1 antibody, VH SEQ ID NO:91, VL SEQ ID NO:92 (antibody, V domains shown, A2-7F01 VH Sequence; A2-7F01 VL Sequence) VH: QVQLQQPGAELVKPGASVKLSCKASGYTFTIYWINWVKQRPGQGLEWIGNIYPGSSSTNYNEKFKTKATLTVDTSSSTAYMQLSSLTSDDSAVYYCAITGTGGFAYWGQGTLVTVSA VL: ENVLTQSPAIMSASLGEKVTMSCRASSSVNYMYWYQQKSDASPKLWIYFTSSLAPGVPTRFSGSGSGNSFSLTISSMEGEDAATYYCQQLTGSPFTFGSGTRLEIK", "one group"),
]
